Every entry's value here was drawn from ChEMBL document CHEMBL1136286.

Entries with reported pKi on Serine protease 1 (Homo sapiens)
Sequence (P07477 whole entry): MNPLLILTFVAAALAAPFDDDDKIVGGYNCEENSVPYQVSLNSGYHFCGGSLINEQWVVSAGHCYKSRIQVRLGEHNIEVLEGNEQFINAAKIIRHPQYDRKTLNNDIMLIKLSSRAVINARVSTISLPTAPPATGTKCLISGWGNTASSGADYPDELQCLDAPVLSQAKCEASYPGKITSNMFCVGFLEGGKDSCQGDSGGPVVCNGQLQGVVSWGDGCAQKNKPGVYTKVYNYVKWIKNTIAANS
Reminder that pKi is minus the log10 of a molar concentration.

Solved cases (5 shown):
• Cc1ccc(NS(=O)(=O)Cc2ccccc2)c(=O)n1CC(=O)NCc1ccccc1CN = 4.17
• Cc1cnc(NCCc2ccccc2)c(=O)n1CC(=O)NCc1cc(Cl)ccc1CN = 5.80
• Cc1ccc(NS(=O)(=O)Cc2ccccc2)c(=O)n1CC(=O)NCc1cc(Cl)ccc1CCN = 4.43
• Cc1ccc(NS(=O)(=O)Cc2ccccc2)c(=O)n1CC(=O)NCc1ccc(CN)cc1 = 5.89
• Cc1ccc(NS(=O)(=O)Cc2ccccc2)c(=O)n1CC(=O)NCc1cc(Cl)ccc1CN = 5.73

// query Item `N[C@H](Cc1ccccc1)C(=O)N1CCC[C@H]1C(=O)NCc1cccc(Cl)c1` with Serine protease 1 (Homo sapiens) - pKi?
// result 4.05

// query Item `NCCc1ccc(Cl)cc1CNC(=O)[C@@H]1CCCN1C(=O)[C@H](N)Cc1ccccc1` with Serine protease 1 (Homo sapiens) - pKi?
// result 3.60

// query Item `NCc1ccc(Cl)cc1CNC(=O)Cn1c(Cl)cnc(NCC(F)(F)c2cccc[n+]2[O-])c1=O` with Serine protease 1 (Homo sapiens) - pKi?
// result 6.38

// query Item `Cc1ccc(NS(=O)(=O)Cc2ccccc2)c(=O)n1CC(=O)NCc1cccc(CN)c1` with Serine protease 1 (Homo sapiens) - pKi?
// result 4.64
